# System: SK-OV-3 ovarian
# assay comment: NCI-60 one-dose screen, 48 h (100 = growth as untreated, 0 = no growth, -100 = all killed)
# test conditions: 10 µM unless noted
Compounds without any hit were thinned out: in the full panel of roughly 83,000, 20% have a hit.
Measured growth, listed per entry for reference.
Number only, in %; omit the unit.

Known results for compounds:
compound=Cc1ccc(C(=O)c2ccc(CC(=O)N/N=C/c3cccc(O)c3O)n2C)cc1 measured_metric=growth unit_abbreviation=% reported_measurement=68
compound=COc1ccc(C=Nc2c(C(=O)Nc3cccc(Cl)c3C)sc3nc(C)c(C(=O)/C=C/c4ccc(OC)cc4)cc23)cc1 measured_metric=growth unit_abbreviation=% reported_measurement=40.9
compound=CCN(CCNc1ccc(C)c2sc3cc(Cl)ccc3c(=O)c12)CC(C)(C)O measured_metric=growth unit_abbreviation=% reported_measurement=45.1
compound=CCCn1c(=S)sc2c(NNC(C)=O)nc(C)nc21 measured_metric=growth unit_abbreviation=% reported_measurement=99.9
compound=O=C1CCCCN1c1ccc(C2=NCCCN2)cc1 measured_metric=growth unit_abbreviation=% reported_measurement=119

In the following, a different compound is considered.
Reported growth, compound O=C(CSc1nnnn1-c1ccccc1)Nc1ccc(Oc2ccccc2)cc1 : ____ 102

----------
# Tested on: OVCAR-4 ovarian
# assay comment: NCI-60 one-dose screen, 48 h (100 = growth as untreated, 0 = no growth, -100 = all killed)
# test conditions: 10 µM unless noted
Compounds without any hit were thinned out: in the full panel of roughly 83,000, 20% have a hit. Activity calls are given as the source filed them. How the source made its calls: active means growth percent below 10; inactive means the rest.
measured metric: growth

Known results for molecules:
molecule=O=S(O)c1cc(Cl)cc(Cl)c1OCc1ccccc1 measured_metric=growth reported_measurement="113% (inactive)"
molecule=Oc1ccc(-c2nc3ccc4[nH]ncc4c3c3c2CCCC3)c(F)c1 measured_metric=growth reported_measurement="51.3% (inactive)"
molecule=Cc1ncc(C(=O)Nc2ccc(CN3CCN(C)CC3)c(C(F)(F)F)c2)cc1C#Cc1cnc(N)c2ccc(C#N)cc12 measured_metric=growth reported_measurement="-7.66% (active)"
molecule=Cn1cc(-c2csc(-c3cn(C)c4ccccc34)n2)c2cnccc21 measured_metric=growth reported_measurement="68.1% (inactive)"
molecule=Cc1cc(=O)oc2cc(Oc3nc(Br)cn4c(Br)cnc34)ccc12 measured_metric=growth reported_measurement="45.5% (inactive)"
molecule="CCOC(=O)c1cnn(CC(C)O)c1NC(=O)NCc1cccc(F)c1 (stereo not given)" measured_metric=growth reported_measurement="122% (inactive)"

Reported growth, molecule O=C(Nc1cccnc1Nc1ccccc1)c1cn(Cc2cccc(Oc3ccccc3)c2)nn1 : ____ 86.9% (inactive)

Reported growth, molecule O=C(Nc1cc(Cl)ccc1O)c1ccccc1Nc1ccnc(C(F)(F)F)c1 : ____ 19.8% (inactive)

Reported growth, molecule CN1CCOCCN(C)Cc2ccc3ccc(cc3c2)CN(C)CCOCCN(C)Cc2ccc3ccc(cc3c2)C1 : ____ 78.4% (inactive)

Reported growth, molecule Nc1nc(N)c2c(n1)NC(c1cccc(Nc3ccnc4cc(C(F)(F)F)ccc34)c1)CC(c1ccc3c(c1)OCO3)=N2 (stereo not given) : ____ 85.9% (inactive)

Reported growth, molecule COc1cc2ncnc(Nc3ccc(F)c(Cl)c3)c2cc1OCC(=O)N1CCOCC1 : ____ 82.7% (inactive)

Reported growth, molecule Fc1cccc(-c2nc(-c3c[nH]c4ncccc34)cs2)c1 : ____ 9.43% [100 µM] (active)

Reported growth, molecule CNCCCNc1nc2ccccc2c2c(=O)c3cc(Cl)ccc3sc12 : ____ 63.6% (inactive)

Reported growth, molecule CCOC(=O)c1c(C)nc2ccccc2c1/C=C/c1ccc(F)cc1 : ____ 64.2% (inactive)

Reported growth, molecule Cc1ccc(S(=O)(=O)OCC#CCOS(=O)(=O)c2ccc(C)cc2)cc1 : ____ 73.4% (inactive)

Reported growth, molecule N#Cc1nn(-c2cc(=O)[nH]c3ccc(Br)cc23)c(N)c1C#N : ____ 81.6% (inactive)

Reported growth, molecule C#Cc1cccc(NC(=O)C2CCCCN2C(=O)CCl)c1 (stereo not given) : ____ -66.9% [8.25 µM] (active)

Reported growth, molecule COc1ccc2c(c1)CC[C@@H]1[C@@H]2CC[C@]2(C)C3C(=CC(COC(C)=O)C4C(=O)N(c5ccc(Cl)cc5)C(=O)C43)C[C@@H]12 (stereo not given in full) : ____ 101% (inactive)

Reported growth, molecule O=c1oc2c(cc1-c1ccccc1)c[n+]([O-])c1ccccc21 : ____ 98.6% (inactive)

Reported growth, molecule Cc1ccc2cnc(N)c(C#Cc3cc(C(=O)Nc4ccc(CN5CCN(C)CC5)c(C(F)(F)F)c4)cnc3C)c2c1 : ____ 37.6% (inactive)

----------
# Tested on: KM12 colon
# assay comment: NCI-60 one-dose screen, 48 h (100 = growth as untreated, 0 = no growth, -100 = all killed)
# test conditions: 10 µM unless noted
This is part of a sample that, as a whole, favours compounds with a hit. Of some 83,000 tested, about 20% had one in any assay. Activity calls are given as the source filed them. Rule for the calls: active = growth percent below 10; inactive = the rest.
measured metric: growth

Known results for compounds:
compound="O=C1C=CC2(O)OC/C(=C\\c3ccccc3)C(O)=C2C1=O (stereo not given)" reported_measurement="-16.9% (active)"
compound=COc1ccc(-c2cc(-c3cccnc3)nc3sc4c(N)c(C(C)=O)c(-c5ccccc5)nc4c23)cc1OC reported_measurement="76.2% (inactive)"
compound=Nc1ncccc1O reported_measurement="100% (inactive)"
compound="COc1cc(N2C(=O)[C@H](Cl)C2c2ccc(SC)cc2)cc(OC)c1OC (stereo not given in full)" reported_measurement="14.4% (inactive)"
compound="C=CC(CC(c1ccccc1)(c1ccccc1)c1ccccc1)N(CC)CC (stereo not given)" reported_measurement="58.8% (inactive)"

Reported growth, compound Cc1ccc(NC(=O)c2sc3nc(C)c(C(O)c4ccccc4)cc3c2N)cc1 (stereo not given) : ____ 16.8% (inactive)

Reported growth, compound COc1ccc(/C=C2\c3cc(OC)c(OC)c(OC)c3CC[C@@H]2O)cc1F : ____ 22.9% (inactive)

Reported growth, compound COc1cc(-c2nccc3[nH]c(-c4cccc5[nH]ccc45)nc23)cc(OC)c1OC : ____ 16.9% (inactive)

Reported growth, compound COC(=O)[C@@]1(C)CC[C@]2(C)CC[C@]3(C)C4=CC=C5C(=CC(=O)C(O)=C5C)[C@]4(C)[C@@H](O)C[C@@]3(C)[C@@H]2C1 : ____ 77.6% (inactive)

Reported growth, compound CNC(=O)c1cc(Oc2ccc3c(c2)sc2nc(-c4ccc(Cl)c(C(F)(F)F)c4)cn23)ccn1 : ____ 82.6% (inactive)

----------
# System: OVCAR-4 ovarian
# assay comment: NCI-60 one-dose screen, 48 h (100 = growth as untreated, 0 = no growth, -100 = all killed)
# test conditions: 10 µM unless noted
This is part of a sample that, as a whole, favours compounds with a hit. Of some 83,000 tested, about 20% had one in any assay.
Measured growth, listed per entry for reference.
Number only, in %; omit the unit.

compound=O=C(Nc1ccc(Nc2ccncc2)cc1)c1ccc(Nc2ccnc3ccc([N+](=O)[O-])cc23)cc1 unit_abbreviation=% reported_measurement=84.4
compound=O=C(O)c1cn(C2CC2)c2cc(N3CCN(C(=O)N/N=C/c4cccc5ccccc45)CC3)c(F)cc2c1=O unit_abbreviation=% reported_measurement=98.3
compound="O=CN1N=C(c2cccc(Nc3ccnc4cc(Cl)ccc34)c2)CC1c1ccc(Cl)cc1 (stereo not given)" unit_abbreviation=% reported_measurement=57.5
compound=Cc1ccc(NC(=O)c2cc3ccccc3cc2O)c(C)c1 unit_abbreviation=% reported_measurement=74.4

Report growth for CN(C)c1ccc(/C=C2\C=C(c3nc4ccccc4s3)OC2=O)cc1 tested on OVCAR-4 ovarian. 81.7

----------
# System: SNB-19 CNS
# assay comment: NCI-60 one-dose screen, 48 h (100 = growth as untreated, 0 = no growth, -100 = all killed)
# test conditions: 10 µM unless noted
About 83,000 compounds went through this panel and 20% of them were active in at least one assay; those are over-represented in the sample as a whole. Active and inactive are the calls of the source. Rule for the calls: active = growth percent below 10; inactive = the rest.
measured metric: growth

compound_structure=O=C(NNc1nc2cc(F)ccc2n2c(CN3CCOCC3)ccc12)c1ccccc1 reported_measurement="18.8% (inactive)"

In the following, a different molecule is considered.
Reported growth, molecule O=C(Nc1cc(Cl)ccc1O)c1ccccc1Nc1ccnc(C(F)(F)F)c1 : ____ 16.2% (inactive)

----------
# Tested on: PC-3 prostate
# assay comment: NCI-60 one-dose screen, 48 h (100 = growth as untreated, 0 = no growth, -100 = all killed)
# test conditions: 10 µM unless noted
About 83,000 compounds went through this panel and 20% of them were active in at least one assay; those are over-represented in the sample as a whole.
Measured growth, listed per entry for reference.
Number only, in %; omit the unit.

compound="CN1CC(c2ccc(Br)cc2)C(C(=O)c2ccc(Br)cc2)C12C(=O)Nc1ccccc12 (stereo unspecified)" reported_measurement=43.5

Reported growth, compound N#CSc1c[nH]c2ccc(/C=C/C(=O)/C=C(O)/C=C/c3ccc4[nH]cc(SC#N)c4c3)cc12 : ____ 12

Reported growth, compound OC1CSSC1Cn1cnc2c(Nc3ccc(OCc4cccc(F)c4)c(Cl)c3)ncnc21 (stereo unspecified) : ____ -69.3

Reported growth, compound O=C(CCCCCCCC(=O)N1CCCCC1)N1CCCCC1 : ____ 95.3

Reported growth, compound CC1(C)CC[C@]23CC[C@]4(C)[C@H](CC[C@@H]5[C@@]6(C)CCNCC(C)(C)[C@@H]6CC[C@]54C)[C@H]2[C@H]1OC3 : ____ 65.8

Reported growth, compound Nc1ncnc2c1N=C(c1ccc(F)cc1)CC(c1cccc(Nc3ccnc4cc(Cl)ccc34)c1)N2 (stereo unspecified) : ____ 66.3
